System: isolated rat uterus
Type: cell-based
Conditions: isolated rat uterus; number of tissues in parentheses
Square brackets hold non-standard residues; d marks the D form. Peptide text beside a SMILES is read from it. dPhe(4-Cl) = N[C@H](Cc1ccc(Cl)cc1)C(=O)O; dPhe(4-F) = N[C@H](Cc1ccc(F)cc1)C(=O)O; d2Nal = N[C@H](Cc1ccc2ccccc2c1)C(=O)O; Hyp = O=C(O)[C@@H]1C[C@@H](O)CN1; 2Thi = N[C@@H](Cc1cccs1)C(=O)O
pA2 /RUT (antagonist potency) overview

| compound | pA2 /RUT (antagonist potency) |
| --- | --- |
| N=C(N)NCCC[C@H](NC(=O)[C@H](Cc1cccs1)NC(=O)[C@@H](Cc1ccccc1)NC(=O)[C@H](CO)NC(=O)[C@H](Cc1cccs1)NC(=O)CNC(=O)[C@@H]1CCCN1C(=O)[C@@H]1CCCN1C(=O)[C@@H](Cc1ccc2ccccc2c1)NC(=O)[C@H](N)Cc1ccc2ccccc2c1)C(=O)O [Example 25] (H-[d2Nal][d2Nal]PPG[2Thi]S[dF][2Thi]R-OH) | 5.6 |
| N=C(N)NCCC[C@H](NC(=O)[C@H](Cc1ccccc1)NC(=O)[C@@H](Cc1ccccc1)NC(=O)[C@H](CO)NC(=O)[C@H](Cc1ccccc1)NC(=O)CNC(=O)[C@@H]1CCCN1C(=O)[C@@H]1CCCN1C(=O)[C@@H](N)CCCNC(=N)N)C(=O)O [Example 1, Arg-Pro-Pro-Gly-Phe-Ser-DPhe-Phe-Arg] (H-RPPGFS[dF]FR-OH) | 5.0 |
| N=C(N)NCCC[C@@H](N)C(=O)N[C@H](Cc1ccc(Cl)cc1)C(=O)N1CCC[C@H]1C(=O)N1CCC[C@H]1C(=O)NCC(=O)N[C@@H](Cc1ccccc1)C(=O)N[C@@H](CO)C(=O)N[C@H](Cc1ccccc1)C(=O)N[C@@H](Cc1ccccc1)C(=O)N[C@@H](CCCNC(=N)N)C(=O)O [Example 4] (H-[dR][dPhe(4-Cl)]PPGFS[dF]FR-OH) | 5.4 |
| N=C(N)NCCC[C@@H](N)C(=O)N[C@H](Cc1ccc(F)cc1)C(=O)N1CCC[C@H]1C(=O)N1C[C@H](O)C[C@H]1C(=O)NCC(=O)N[C@@H](Cc1ccccc1)C(=O)N[C@@H](CO)C(=O)N[C@H](Cc1ccccc1)C(=O)N[C@@H](Cc1ccccc1)C(=O)N[C@@H](CCCNC(=N)N)C(=O)O [Example 12] (H-[dR][dPhe(4-F)]P[Hyp]GFS[dF]FR-OH) | 5.7 |
| N=C(N)NCCC[C@@H](N)C(=O)N[C@H](Cc1ccc(Cl)cc1)C(=O)N1CCC[C@H]1C(=O)N1C[C@H](O)C[C@H]1C(=O)NCC(=O)N[C@@H](Cc1ccccc1)C(=O)N[C@@H](CO)C(=O)N[C@H](Cc1ccccc1)C(=O)N[C@@H](Cc1ccccc1)C(=O)N[C@@H](CCCNC(=N)N)C(=O)O [Example 5] (H-[dR][dPhe(4-Cl)]P[Hyp]GFS[dF]FR-OH) | 5.8 |

Kindly consider the entry below.
Hi! What's the reported pA2 /RUT (antagonist potency) for N=C(N)NCCC[C@H](NC(=O)[C@H](Cc1ccccc1)NC(=O)[C@@H](Cc1ccccc1)NC(=O)[C@H](CO)NC(=O)[C@H](Cc1ccccc1)NC(=O)CNC(=O)[C@@H]1CCCN1C(=O)[C@@H]1CCCN1C(=O)[C@H](N)Cc1ccc(Cl)cc1)C(=O)O [Example 2, CDF-Pro-Pro-Gly-Phe-Ser-DPhe-Phe-Arg] (H-[dPhe(4-Cl)]PPGFS[dF]FR-OH) on isolated rat uterus?
5.0
